A collection of molecules and their measured solubility
ASSAY_PROTOCOL: Solubility of PIR compounds in aqueous solution
Type: physicochemical
EXPERIMENTAL_PARAMETERS: aqueous solution, starred values of column PIR, M (footnote of Table 6); read-out: maximum molar solubility
TEST_READOUT: solubility (mM)

> print(dat)
                                   molecule  quantitative.readout
1  O=C(C[n+]1ccsc1)c1ccccc1 [PTB, Phenacyl Thiazolium Bromide, reference compound]                  1000
2  Cc1ncc(C[n+]2csc(CCO[P@](=O)(O)OP(=O)(O)O)c2C)c(N)n1 [THI-PP, thiamine pyrophosphate]                   300

---

ASSAY_PROTOCOL: Solubility of PIR compounds in aqueous solution
Assay type: physicochemical
EXPERIMENTAL_PARAMETERS: aqueous solution, aqueous solutions; read-out: solubility in aqueous solutions (molar solubility)
TEST_READOUT: solubility (mM)

> print(dat)
                                   compound  test.readout  result.qualifier  quantitative.readout
1  O=C(C[n+]1ccsc1)c1ccccc1 [PTB, Phenacyl Thiazolium Bromide, reference compound]    solubility                 <                  1000
2  Cc1ncc(C[n+]2csc(CCO[P@](=O)(O)OP(=O)(O)O)c2C)c(N)n1 [THI-PP, thiamine pyrophosphate]    solubility                 =                   300
